# testedSystem: Tyrosine-protein kinase ITK/TSK (Homo sapiens, UniProt Q08881)
# Sequence (Q08881 whole entry): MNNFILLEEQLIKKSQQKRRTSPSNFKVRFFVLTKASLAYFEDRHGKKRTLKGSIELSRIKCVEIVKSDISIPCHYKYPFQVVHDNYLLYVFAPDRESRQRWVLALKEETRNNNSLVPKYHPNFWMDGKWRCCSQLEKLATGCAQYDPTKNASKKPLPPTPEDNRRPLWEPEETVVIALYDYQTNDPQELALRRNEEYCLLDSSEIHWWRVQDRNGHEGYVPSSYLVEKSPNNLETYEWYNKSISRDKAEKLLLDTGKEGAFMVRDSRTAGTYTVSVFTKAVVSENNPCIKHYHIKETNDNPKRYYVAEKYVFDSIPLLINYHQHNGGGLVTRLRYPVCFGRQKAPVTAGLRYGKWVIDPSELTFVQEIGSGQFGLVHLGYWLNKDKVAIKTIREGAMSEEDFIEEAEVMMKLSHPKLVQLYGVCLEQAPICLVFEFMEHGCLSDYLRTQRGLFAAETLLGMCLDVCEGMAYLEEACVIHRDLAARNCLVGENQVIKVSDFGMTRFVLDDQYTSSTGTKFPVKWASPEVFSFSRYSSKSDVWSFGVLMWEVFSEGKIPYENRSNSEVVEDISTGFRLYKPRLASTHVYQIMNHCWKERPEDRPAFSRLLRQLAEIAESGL
# methodDescription: Inhibition of recombinant full length human GST-tagged ITK expressed in baculovirus expression system using tyrosine-1 peptide as substrate preincubated for 1 hr in presence of ATP by Z'-LYTE assay
Please go through the items and note down their IC50.

Hey, can you go through the list below and give me IC50 for every item?
1. CC#CC(=O)Nc1cc2c(Oc3ccc(C(=O)Nc4ccccn4)cc3)ccnc2cc1OCCN1CCOCC1
2. C=CC(=O)Nc1ccc2nccc(Oc3ccc(C(=O)Nc4cc(CC)ccn4)cc3)c2c1
3. COc1cc2nccc(Oc3ccc(C(=O)Nc4ccccn4)cc3)c2cc1NC(=O)C#CCCN1CCOCC1

A:
["> 1 µM", "> 1 µM", "0.916 µM"]

====

Please go through the items and note down their pIC50.
# testedSystem: Epidermal growth factor receptor (Homo sapiens)
# Sequence (P00533 whole entry): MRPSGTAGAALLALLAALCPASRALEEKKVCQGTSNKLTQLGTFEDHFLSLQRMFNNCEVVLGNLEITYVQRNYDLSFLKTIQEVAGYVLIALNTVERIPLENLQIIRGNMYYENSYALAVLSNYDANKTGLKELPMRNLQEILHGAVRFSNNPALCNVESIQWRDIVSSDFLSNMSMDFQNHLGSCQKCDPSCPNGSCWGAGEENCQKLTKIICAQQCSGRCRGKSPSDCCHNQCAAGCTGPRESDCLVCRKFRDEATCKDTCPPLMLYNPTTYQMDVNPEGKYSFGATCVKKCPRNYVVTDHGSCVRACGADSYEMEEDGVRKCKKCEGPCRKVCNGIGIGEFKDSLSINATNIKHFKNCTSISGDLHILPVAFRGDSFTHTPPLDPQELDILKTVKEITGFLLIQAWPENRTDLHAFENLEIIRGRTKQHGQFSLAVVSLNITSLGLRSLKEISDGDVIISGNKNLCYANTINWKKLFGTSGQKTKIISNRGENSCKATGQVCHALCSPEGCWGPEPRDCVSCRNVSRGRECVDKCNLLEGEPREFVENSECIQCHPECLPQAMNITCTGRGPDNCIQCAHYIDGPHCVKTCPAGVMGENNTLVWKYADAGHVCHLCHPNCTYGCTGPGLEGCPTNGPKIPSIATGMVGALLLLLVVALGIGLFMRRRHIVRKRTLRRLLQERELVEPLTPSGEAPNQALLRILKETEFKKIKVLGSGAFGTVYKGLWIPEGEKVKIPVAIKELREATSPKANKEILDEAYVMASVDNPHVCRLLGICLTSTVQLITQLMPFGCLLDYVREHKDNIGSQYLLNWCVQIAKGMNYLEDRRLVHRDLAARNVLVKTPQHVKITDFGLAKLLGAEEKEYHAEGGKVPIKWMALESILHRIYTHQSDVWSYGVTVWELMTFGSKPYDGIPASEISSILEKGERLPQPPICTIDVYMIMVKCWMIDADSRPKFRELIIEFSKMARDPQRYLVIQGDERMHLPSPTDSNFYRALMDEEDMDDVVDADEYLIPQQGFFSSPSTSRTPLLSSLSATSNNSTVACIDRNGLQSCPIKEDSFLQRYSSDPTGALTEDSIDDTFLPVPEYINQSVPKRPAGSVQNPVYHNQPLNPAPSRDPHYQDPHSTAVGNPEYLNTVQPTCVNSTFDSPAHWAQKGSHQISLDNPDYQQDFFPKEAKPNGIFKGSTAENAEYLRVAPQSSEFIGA
# methodDescription: Inhibition of EGFR (unknown origin) expressed in baculovirus system using fluorescein labeled PDGFR-tide substrate peptide preincubated for 60 mins followed by ATP addition and measured after 60 mins by IMAP assay
pIC50: −log10 of the molar value.

Below: 3 compounds and their reported pIC50.
INSERT INTO results (givensmiles, observed) VALUES
  ('CC#CC(=O)Nc1cc2c(Oc3ccc(C(=O)Nc4ccccn4)cc3)ccnc2cc1OC1CCOCC1', '< 6.00'),
  ('CC#CC(=O)Nc1cc2c(Oc3ccc(C(=O)Nc4ccccn4)cc3)ccnc2cc1OC', '< 6.00'),
  ('CC#CC(=O)Nc1cc2c(Oc3ccc(C(=O)Nc4ccccn4)cc3)ccnc2cc1OCCN1CCOCC1', '< 6.00');

Next:
Value sought: pIC50, system Epidermal growth factor receptor (Homo sapiens), item "CC#CC(=O)Nc1ccc2nccc(Oc3ccc(C(=O)Nc4ccccn4)cc3)c2c1" . Result: < 6.00
